System: HCC1599
Settings: 72 h
Below, each entry is listed with its recorded EC50, CellTiter-Glo.

{"record_smiles": "S=c1[nH]cnc2nc[nH]c12", "unit_abbreviation": "nM", "EC50, CellTiter-Glo": 3820}
{"record_smiles": "COc1cccc2c1C(=O)c1c(O)c3c(c(O)c1C2=O)C[C@@](O)(C(=O)CO)C[C@@H]3O[C@H]1C[C@H](N)[C@H](O)[C@H](C)O1", "unit_abbreviation": "nM", "EC50, CellTiter-Glo": 597}
{"record_smiles": "CC[C@]1(O)C[C@@H]2CN(CCc3c([nH]c4ccccc34)[C@@](C(=O)OC)(c3cc4c(cc3OC)N(C)[C@H]3[C@@](O)(C(=O)OC)[C@H](OC(C)=O)[C@]5(CC)C=CCN6CC[C@]43[C@@H]65)C2)C1", "unit_abbreviation": "nM", "EC50, CellTiter-Glo": 19.7}
{"record_smiles": "Cc1c2oc3c(C)ccc(C(=O)N[C@@H]4C(=O)N[C@H](C(C)C)C(=O)N5CCC[C@H]5C(=O)N(C)CC(=O)N(C)[C@@H](C(C)C)C(=O)O[C@@H]4C)c3nc-2c(C(=O)N[C@@H]2C(=O)N[C@H](C(C)C)C(=O)N3CCC[C@H]3C(=O)N(C)CC(=O)N(C)[C@@H](C(C)C)C(=O)O[C@@H]2C)c(N)c1=O", "unit_abbreviation": "nM", "EC50, CellTiter-Glo": 35.9}

----------
Tested on: CAL-85-1
Test: normalised response (% of control), CellTiter-Glo; higher = more viable cells (100 = DMSO, 0 = benzethonium chloride kill control)
Conditions: incubation time: 72 h
assay_metric: normalised response (%)

{"compound": "CO[C@H]1C[C@@H]2CC[C@@H](C)[C@@](O)(O2)C(=O)C(=O)N2CCCC[C@H]2C(=O)O[C@H]([C@H](C)C[C@@H]2CC[C@@H](OC(=O)C(C)(CO)CO)[C@H](OC)C2)CC(=O)[C@H](C)/C=C(\\C)[C@@H](O)[C@@H](OC)C(=O)[C@H](C)C[C@H](C)/C=C/C=C/C=C/1C [Temsirolimus] (100 nM)", "experimental_system": "CAL-85-1", "unit_abbreviation": "%", "value_observed": 60.5}
{"compound": "C=CCNC1=C2C[C@@H](C)C[C@H](OC)[C@H](O)[C@@H](C)/C=C(\\C)[C@H](OC(N)=O)[C@@H](OC)/C=C\\C=C(/C)C(=O)NC(=CC1=O)C2=O [Tanespimycin] (10000 nM)", "experimental_system": "CAL-85-1", "unit_abbreviation": "%", "value_observed": 21.2}
{"compound": "C[C@]1(c2nc3c(C(N)=O)cccc3[nH]2)CCCN1 [Veliparib] (10000 nM)", "experimental_system": "CAL-85-1", "unit_abbreviation": "%", "value_observed": 104}
{"compound": "OC[C@H]1O[C@@H](n2cnc3c2N=CNC[C@H]3O)C[C@@H]1O [Pentostatin] (10000 nM)", "experimental_system": "CAL-85-1", "unit_abbreviation": "%", "value_observed": 99.2}
{"compound": "COc1cccc2cc(-c3nc([C@H]4CC[C@H](C(=O)O)CC4)n4ncnc(N)c34)[nH]c12 [OSI-027] (10000 nM)", "experimental_system": "CAL-85-1", "unit_abbreviation": "%", "value_observed": 30.1}
{"compound": "COc1cccc2c1C(=O)c1c(O)c3c(c(O)c1C2=O)C[C@@](O)(C(=O)CO)C[C@@H]3O[C@H]1C[C@H](N)[C@H](O)[C@H](C)O1 [Doxorubicin] (1000 nM)", "experimental_system": "CAL-85-1", "unit_abbreviation": "%", "value_observed": 17.7}
